Source of measurements: ChEMBL document CHEMBL5724801

Tested on: Fibroblast
Test: Multiplex assay against human fibroblast
Type: toxicity, cell-based
Details: 12 h, 1 µM, compound concentration 1 uM
# Population Normal (%) per entry

{"MOLECULE": "CCCCCN1C(=O)C2(COc3cc4c(cc32)OCO4)c2ccccc21 (stereo not given)", "MEASURED TARGET": "Fibroblast", "Population Normal (%)": 100}
{"MOLECULE": "CC(C)(C)c1cc(C(C)(C)C)c(NC(=O)c2c[nH]c3ccccc3c2=O)cc1O [IVACAFTOR]", "MEASURED TARGET": "Fibroblast", "Population Normal (%)": 100}
{"MOLECULE": "Cl.N=C(N)NC(=O)Cc1c(Cl)cccc1Cl [GUANFACINE HYDROCHLORIDE]", "MEASURED TARGET": "Fibroblast", "Population Normal (%)": 97}
{"MOLECULE": "Cc1c(-c2cc(-c3ccccc3Cl)no2)cnn1C1CCNCC1.Cl", "MEASURED TARGET": "Fibroblast", "Population Normal (%)": 100}
{"MOLECULE": "CCC(=N\\O)/C(C)=C/c1ccc(F)cc1 [A-079]", "MEASURED TARGET": "Fibroblast", "Population Normal (%)": 100}

---

Test system: U2OS
Assay: Multiplex assay against U2OS
Format: toxicity, cell-based
Details: human, 12 h, 1 µM, compound concentration 1 uM
Listing: Population Normal (%) of selected compounds

{"COMPOUND": "CCC(=N\\O)/C(C)=C/c1ccc(F)cc1 [A-079]", "Population Normal (%)": 100}
{"COMPOUND": "CC(C)(C)c1cc(C(C)(C)C)c(NC(=O)c2c[nH]c3ccccc3c2=O)cc1O [IVACAFTOR]", "Population Normal (%)": 100}
{"COMPOUND": "O=C(Nc1c[nH]nc1-c1nc2cc(CN3CCOCC3)ccc2[nH]1)NC1CC1 [AT-9283]", "Population Normal (%)": 100}
{"COMPOUND": "O=C(O)C(F)(F)F.O=C1NC(=O)/C(=C/c2c[nH]c(=O)c(-c3ccc(N4CCNCC4)nc3)c2)S1", "Population Normal (%)": 100}
{"COMPOUND": "COc1cc(OC2CCN(C(C)=O)CC2)ccc1C(=O)N1CCC(N2C(=O)OCc3ccccc32)CC1", "Population Normal (%)": 99}
{"COMPOUND": "CC(C)(c1ccc(O)cc1)c1ccc(O)cc1 [BISPHENOL A]", "Population Normal (%)": 100}
{"COMPOUND": "COc1ccc(CC(=O)NC(N/C(=N/C#N)Nc2cccc3ncccc23)C(C)(C)C)cc1OC (stereo not given)", "Population Normal (%)": 100}
{"COMPOUND": "Cc1c(-c2cc(-c3ccccc3Cl)no2)cnn1C1CCNCC1.Cl", "Population Normal (%)": 100}
{"COMPOUND": "CN1[C@@H](CC(=O)c2ccccc2)CCC[C@H]1C[C@H](O)c1ccccc1.Cl [LOBELINE HYDROCHLORIDE]", "Population Normal (%)": 100}
{"COMPOUND": "COC(=O)C1=C(C)NC(C)=C(C(=O)OC(C)C)C1c1cccc2nonc12 (stereo not given) [ISRADIPINE]", "Population Normal (%)": 100}
{"COMPOUND": "Oc1c(CN2CCN(c3ccccn3)CC2)cc(Cl)c2cccnc12", "Population Normal (%)": 98}
{"COMPOUND": "C=CC(=O)N1CCC[C@@H](n2nc(C(=O)Nc3ccc(CC(=O)N(C)C)c(C)c3C)c3c(N)ncnc32)C1", "Population Normal (%)": 100}
{"COMPOUND": "O=c1nc2[nH]c3ccccc3nc-2c(=O)[nH]1 [ALLOXAZINE]", "Population Normal (%)": 97}
{"COMPOUND": "C[C@H](NC(=O)CNC(=O)c1cccc(Cl)c1)c1ccccc1", "Population Normal (%)": 96}
{"COMPOUND": "CCOC(=O)c1c(/C(C#N)=C\\N)c2ccc(Cl)c(Cl)c2n1C", "Population Normal (%)": 100}
